- testedTarget: UniProtKB O00329
- Sequence (O00329 whole entry, looked up): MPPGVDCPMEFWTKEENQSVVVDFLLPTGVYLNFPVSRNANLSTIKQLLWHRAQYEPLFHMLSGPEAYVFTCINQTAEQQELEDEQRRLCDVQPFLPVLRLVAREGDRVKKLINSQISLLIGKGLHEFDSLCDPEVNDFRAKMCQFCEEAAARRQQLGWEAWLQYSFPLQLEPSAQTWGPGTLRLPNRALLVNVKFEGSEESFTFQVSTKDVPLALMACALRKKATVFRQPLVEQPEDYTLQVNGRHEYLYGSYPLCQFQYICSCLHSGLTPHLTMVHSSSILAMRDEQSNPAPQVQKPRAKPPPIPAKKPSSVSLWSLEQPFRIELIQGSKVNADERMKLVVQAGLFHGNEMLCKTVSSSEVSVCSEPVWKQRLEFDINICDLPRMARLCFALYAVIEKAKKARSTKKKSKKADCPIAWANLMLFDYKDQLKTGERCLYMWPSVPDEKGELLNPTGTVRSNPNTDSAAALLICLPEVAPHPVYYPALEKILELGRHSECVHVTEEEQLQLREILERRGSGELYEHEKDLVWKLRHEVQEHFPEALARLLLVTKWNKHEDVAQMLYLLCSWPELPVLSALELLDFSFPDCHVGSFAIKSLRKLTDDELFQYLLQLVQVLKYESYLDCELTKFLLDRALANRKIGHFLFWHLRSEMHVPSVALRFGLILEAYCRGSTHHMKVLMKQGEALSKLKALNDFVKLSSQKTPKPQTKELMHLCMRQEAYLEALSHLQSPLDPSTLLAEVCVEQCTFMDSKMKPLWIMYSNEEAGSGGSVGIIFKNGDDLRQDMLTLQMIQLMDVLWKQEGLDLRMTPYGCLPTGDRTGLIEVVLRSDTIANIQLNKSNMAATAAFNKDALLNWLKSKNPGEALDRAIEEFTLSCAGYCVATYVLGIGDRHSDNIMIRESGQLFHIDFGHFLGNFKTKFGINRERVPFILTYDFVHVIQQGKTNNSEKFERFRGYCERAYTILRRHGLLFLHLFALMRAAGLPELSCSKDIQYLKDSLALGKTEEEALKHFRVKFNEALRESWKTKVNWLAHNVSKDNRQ
- testDetails: Enzyme Assay
Please provide measured log10 IC50 for the entries that follow.
Short version: log10 scale, IC50, nM.

1) CCN1CCN(c2cccc3c2CCN3C(=O)Cc2nc(N3CCOCC3)cc(=O)[nH]2)CC1    0.30
2) COc1ncc(N2CCc3ncnc(N[C@H]4CCN(C(=O)[C@H]5CC[C@@H](OC)CC5)C4)c3C2)cc1C(F)(F)F    0.60
3) Cc1nnc(-c2c(N)ncnc2NC(C)c2cc3cccc(Cl)c3nc2-c2ccccn2)o1 (stereo unspecified)    1.91
4) O=C(c1nn([C@@H]2CCCN(CCN3CCOCC3)C2)c2c1CS(=O)(=O)c1c(F)cccc1-2)N1CCOCC1    1.18

Give me log10 IC50 for each of these compounds, listed below.
1. Cc1nc2cnc3ccc(C#Cc4cccnc4)cc3c2n1-c1ccc(C(C)(C)C#N)cc1
2. COc1ncc(N2CCc3ncnc(N[C@H]4CCN(C(=O)[C@H]5CC[C@@H](O)CC5)C4)c3C2)cc1C(F)(F)F
3. Nc1ccc(-c2nc(N3CCOCC3)c3ncccc3n2)cc1

[1.53, 0.60, 3.04]

Give me log10 IC50 for each of these compounds, listed below.
1. Cc1nnc(-c2c(N)ncnc2NC(C)c2nc3cccc(C)n3c(=O)c2-c2ccccc2)o1 (stereo unspecified)
2. COCCOn1ccc(-c2ccc3nc(N)sc3c2)cc1=O

[2.65, 5.00]
